experiment: Pharmacokinetics of SAR405838 (whole-blood concentrations) in combination; assay type: in vivo, human; conditions: human, whole blood, oral, DL2a SAR405838 200 mg QD + pimasertib 60 mg QD; C2D1; read-out: SAR405838 Cmax, mean ± SD
resultType: Cmax

Given the molecule CC(C)(C)C[C@@H]1N[C@@H](C(=O)N[C@H]2CC[C@H](O)CC2)[C@H](c2cccc(Cl)c2F)[C@]12C(=O)Nc1cc(Cl)ccc12 [SAR405838] , what is its reported Cmax?
1050 ng/mL

---

assay: Pharmacokinetics of pimasertib (plasma concentrations) in combination; assay type: in vivo, human; details: human, plasma, oral, DL2a SAR405838 200 mg QD + pimasertib 60 mg QD; C2D1; read-out: Pimasertib Cmax, mean ± SD
resultType: Cmax (ng/mL)
Please respond with the number in ng/mL and leave the unit unwritten.

Form field: reported Cmax of O=C(NC[C@H](O)CO)c1ccncc1Nc1ccc(I)cc1F
269
